The measurements presented in this section are drawn from ChEMBL document CHEMBL1201862.

Molecular target: Heat shock factor protein 1 (Mus musculus, UniProt P38532)
Sequence (P38532 whole entry): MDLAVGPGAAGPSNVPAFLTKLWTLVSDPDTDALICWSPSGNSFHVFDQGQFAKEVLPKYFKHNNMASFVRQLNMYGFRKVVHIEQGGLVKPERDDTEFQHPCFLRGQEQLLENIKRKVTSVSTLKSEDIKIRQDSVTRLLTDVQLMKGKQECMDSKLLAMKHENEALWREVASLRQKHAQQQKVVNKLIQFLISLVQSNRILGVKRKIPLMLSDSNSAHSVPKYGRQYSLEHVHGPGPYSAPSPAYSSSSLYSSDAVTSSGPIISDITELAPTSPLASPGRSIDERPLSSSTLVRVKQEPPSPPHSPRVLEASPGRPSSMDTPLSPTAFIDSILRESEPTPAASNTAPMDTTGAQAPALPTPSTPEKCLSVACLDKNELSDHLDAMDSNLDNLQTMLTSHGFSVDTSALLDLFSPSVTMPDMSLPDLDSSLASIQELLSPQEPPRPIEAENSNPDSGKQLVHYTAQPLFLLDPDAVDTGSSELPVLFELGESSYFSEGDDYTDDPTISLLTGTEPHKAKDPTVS
Assay: decrease of HSF1-responsive luciferase luminescence – cell-based, NIH3T3, dose retest, confirmation (AID 2382);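 also: NIH3T3 fibroblasts with HSF1-driven luciferase reporter stressed by proteasome inhibitor MG132; luminescence from HSF1-driven luciferase expression after 8 hours of MG132 stress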
Assay type: functional
Active and inactive are the calls of the source. Rule as the data show it: actives have a measured EC50 and inactives only a lower limit.
observable: EC50

IN: Report EC50 for O=C(NCc1ccccc1C(F)(F)F)C12CN(Cc3ccccc3)CC1C(c1ccc([N+](=O)[O-])cc1)=NO2 (stereo unspecified)
OUT: > 195 µM (not active)

IN: Report EC50 for `O=C(Oc1cc(=O)oc2c1c(=O)n1c3c(cccc23)CC1)c1ccc(F)cc1`
OUT: 22.2 µM (active)

IN: Report EC50 for `CCC(=O)Nc1c(-c2ccc(Cl)cc2)c(=O)c2ccccc2n1C`
OUT: > 195 µM (not active)

IN: Report EC50 for `C=CCn1c(C)cc(C2=NN=C(NCC)SC2)c1C`
OUT: < 0.16 µM (active)

IN: Report EC50 for `COc1cc(/C=N/N=C(/Nc2ccc(C)cc2)c2nc3ccccc3s2)ccc1O`
OUT: < 0.16 µM (active)

IN: Report EC50 for `CCN(Cc1cc(=O)oc2cc(C)ccc12)c1ccccc1`
OUT: > 195 µM (not active)
